# TARGET_OR_TEST_SYSTEM: EPHB6 (Homo sapiens)
# Construct: purchased Eurofins DiscoverX KINOMEscan (scanTK)
# Sequence (O15197 32-1021): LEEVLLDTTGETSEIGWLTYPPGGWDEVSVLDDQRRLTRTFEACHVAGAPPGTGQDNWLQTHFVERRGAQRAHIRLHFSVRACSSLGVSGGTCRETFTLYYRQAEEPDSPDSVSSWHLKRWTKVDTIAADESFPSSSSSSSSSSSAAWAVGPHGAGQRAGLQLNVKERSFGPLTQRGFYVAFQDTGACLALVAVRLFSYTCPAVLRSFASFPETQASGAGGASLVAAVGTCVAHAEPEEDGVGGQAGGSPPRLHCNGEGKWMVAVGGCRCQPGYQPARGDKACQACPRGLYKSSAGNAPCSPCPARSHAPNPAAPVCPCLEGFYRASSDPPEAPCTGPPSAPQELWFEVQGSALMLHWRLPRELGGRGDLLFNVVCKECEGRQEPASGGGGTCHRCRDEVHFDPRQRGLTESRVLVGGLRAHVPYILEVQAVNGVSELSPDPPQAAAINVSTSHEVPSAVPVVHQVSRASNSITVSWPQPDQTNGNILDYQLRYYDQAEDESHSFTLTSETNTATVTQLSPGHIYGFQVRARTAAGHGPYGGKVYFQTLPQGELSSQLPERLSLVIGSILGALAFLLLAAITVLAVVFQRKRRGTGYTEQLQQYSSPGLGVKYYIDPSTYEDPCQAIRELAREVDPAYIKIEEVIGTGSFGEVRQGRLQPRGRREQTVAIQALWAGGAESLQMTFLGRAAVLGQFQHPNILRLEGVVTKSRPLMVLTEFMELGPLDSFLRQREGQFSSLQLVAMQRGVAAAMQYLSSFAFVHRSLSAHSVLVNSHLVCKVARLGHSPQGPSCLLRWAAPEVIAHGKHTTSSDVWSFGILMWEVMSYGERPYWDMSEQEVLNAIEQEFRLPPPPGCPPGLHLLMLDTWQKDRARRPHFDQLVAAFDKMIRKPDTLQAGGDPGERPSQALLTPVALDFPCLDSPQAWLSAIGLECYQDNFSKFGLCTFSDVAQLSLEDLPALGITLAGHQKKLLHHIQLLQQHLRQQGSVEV
# TEST_PROTOCOL: KINOMEscan ScanTK
# Assay type: binding
# COND: @1000nM
RESULT_TYPE: difference in %Control versus compound Ib at 1 µM (%)
Report as a plain number; the unit % is understood.

Example results:
[
  {
    "COMPOUND": "Cc1cnc(S(C)(=O)=O)nc1N1CCCC(n2nc(-c3ccc(Oc4ccccc4)cc3)c3c(N)ncnc32)C1 (stereo not shown)",
    "TARGET_OR_TEST_SYSTEM": "EPHB6 (Homo sapiens)",
    "READOUT_NUMBER": 6
  },
  {
    "COMPOUND": "CCOC(=O)c1cnc(S(C)(=O)=O)nc1N1CCC[C@@H](n2nc(-c3ccc(Oc4ccccc4)cc3)c3c(N)ncnc32)C1",
    "TARGET_OR_TEST_SYSTEM": "EPHB6 (Homo sapiens)",
    "READOUT_NUMBER": 54
  },
  {
    "COMPOUND": "CNC(=O)c1cnc(S(C)(=O)=O)nc1N1CCCC(n2nc(-c3ccc(Oc4ccccc4)cc3)c3c(N)ncnc32)C1 (stereo not shown)",
    "TARGET_OR_TEST_SYSTEM": "EPHB6 (Homo sapiens)",
    "READOUT_NUMBER": 16
  }
]

Could you now look at the following compound, please?
Provide value of difference in %Control versus compound Ib at 1 µM for this record tested with EPHB6 (Homo sapiens): COC(=O)c1cnc(S(C)(=O)=O)nc1N1CCCC(n2nc(-c3ccc(Oc4ccccc4)cc3)c3c(N)ncnc32)C1 (stereo not shown) -9.1

====

# TARGET_OR_TEST_SYSTEM: FLT3(D835V) (Homo sapiens, UniProt P36888, D835V)
# Construct: purchased Eurofins DiscoverX KINOMEscan (scanTK)
# TEST_PROTOCOL: KINOMEscan ScanTK
# Assay type: binding
# COND: read-out: %Control @1000nM
RESULT_TYPE: remaining binding at 1 µM (%)
Give the value in % but do not write % after it.

Record excerpt, results attached:
[
  {
    "MOLECULE": "CCOC(=O)c1cnc(S(C)(=O)=O)nc1N1CCC[C@@H](n2nc(-c3ccc(Oc4ccccc4)cc3)c3c(N)ncnc32)C1",
    "TARGET_OR_TEST_SYSTEM": "FLT3(D835V) (Homo sapiens, UniProt P36888, D835V)",
    "RESULT_TYPE": "remaining binding at 1 µM",
    "READOUT_NUMBER": 56
  },
  {
    "MOLECULE": "Cc1cnc(S(C)(=O)=O)nc1N1CCCC(n2nc(-c3ccc(Oc4ccccc4)cc3)c3c(N)ncnc32)C1 (stereo not shown)",
    "TARGET_OR_TEST_SYSTEM": "FLT3(D835V) (Homo sapiens, UniProt P36888, D835V)",
    "RESULT_TYPE": "remaining binding at 1 µM",
    "READOUT_NUMBER": 30
  },
  {
    "MOLECULE": "COC(=O)c1cnc(S(C)(=O)=O)nc1N1CCCC(n2nc(-c3ccc(Oc4ccccc4)cc3)c3c(N)ncnc32)C1 (stereo not shown)",
    "TARGET_OR_TEST_SYSTEM": "FLT3(D835V) (Homo sapiens, UniProt P36888, D835V)",
    "RESULT_TYPE": "remaining binding at 1 µM",
    "READOUT_NUMBER": 48
  }
]

Switching to the query record.
For the molecule shown here, CNC(=O)c1cnc(S(C)(=O)=O)nc1N1CCCC(n2nc(-c3ccc(Oc4ccccc4)cc3)c3c(N)ncnc32)C1 (stereo not shown) , give the reported remaining binding at 1 µM. 23

====

Documented difference in %Control versus compound Ib at 1 µM across a set of molecules
# TARGET_OR_TEST_SYSTEM: ERBB4 (Homo sapiens)
# Construct: purchased Eurofins DiscoverX KINOMEscan (scanTK)
# Sequence (Q15303 26-1308): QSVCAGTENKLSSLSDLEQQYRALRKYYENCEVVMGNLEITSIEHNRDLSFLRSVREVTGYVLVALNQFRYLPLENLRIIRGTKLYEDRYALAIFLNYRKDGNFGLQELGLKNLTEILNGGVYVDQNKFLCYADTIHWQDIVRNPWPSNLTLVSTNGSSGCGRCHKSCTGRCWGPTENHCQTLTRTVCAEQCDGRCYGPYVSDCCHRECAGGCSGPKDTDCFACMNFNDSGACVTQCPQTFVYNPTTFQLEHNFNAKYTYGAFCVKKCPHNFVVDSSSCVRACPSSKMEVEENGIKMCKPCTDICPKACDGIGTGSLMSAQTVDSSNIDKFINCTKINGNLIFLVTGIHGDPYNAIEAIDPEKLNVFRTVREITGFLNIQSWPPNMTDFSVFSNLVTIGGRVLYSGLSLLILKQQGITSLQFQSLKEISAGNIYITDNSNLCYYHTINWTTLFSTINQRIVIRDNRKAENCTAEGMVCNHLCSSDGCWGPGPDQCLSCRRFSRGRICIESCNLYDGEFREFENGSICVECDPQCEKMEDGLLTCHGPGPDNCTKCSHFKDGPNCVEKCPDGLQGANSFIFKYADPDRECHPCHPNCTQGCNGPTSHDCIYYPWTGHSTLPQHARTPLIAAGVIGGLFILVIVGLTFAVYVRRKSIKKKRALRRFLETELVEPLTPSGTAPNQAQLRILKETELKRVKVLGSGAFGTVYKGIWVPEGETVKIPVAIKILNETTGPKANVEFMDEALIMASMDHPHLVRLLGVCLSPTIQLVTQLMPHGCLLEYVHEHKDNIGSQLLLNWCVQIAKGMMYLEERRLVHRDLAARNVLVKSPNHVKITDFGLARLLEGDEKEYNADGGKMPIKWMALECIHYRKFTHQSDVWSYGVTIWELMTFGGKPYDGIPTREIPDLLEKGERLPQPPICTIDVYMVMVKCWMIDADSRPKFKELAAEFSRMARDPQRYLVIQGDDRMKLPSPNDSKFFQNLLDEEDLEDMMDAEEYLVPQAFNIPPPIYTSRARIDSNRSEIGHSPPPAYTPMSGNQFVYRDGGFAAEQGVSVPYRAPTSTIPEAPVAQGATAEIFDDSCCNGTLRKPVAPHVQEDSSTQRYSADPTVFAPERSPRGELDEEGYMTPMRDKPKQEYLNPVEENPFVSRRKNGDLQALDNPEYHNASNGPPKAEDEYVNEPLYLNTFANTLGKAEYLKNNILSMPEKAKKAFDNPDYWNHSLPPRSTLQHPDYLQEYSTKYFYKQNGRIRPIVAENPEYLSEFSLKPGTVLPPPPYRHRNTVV
# TEST_PROTOCOL: KINOMEscan ScanTK
# Assay type: binding
# COND: @1000nM
Dear colleague, please return just the value in %, with no unit written.

// worked examples, difference in %Control versus compound Ib at 1 µM included
[
  {
    "MOLECULE": "CCOC(=O)c1cnc(S(C)(=O)=O)nc1N1CCC[C@@H](n2nc(-c3ccc(Oc4ccccc4)cc3)c3c(N)ncnc32)C1",
    "READOUT_NUMBER": 5.15
  },
  {
    "MOLECULE": "Cc1cnc(S(C)(=O)=O)nc1N1CCCC(n2nc(-c3ccc(Oc4ccccc4)cc3)c3c(N)ncnc32)C1 (stereo not shown)",
    "READOUT_NUMBER": 64
  },
  {
    "MOLECULE": "COC(=O)c1cnc(S(C)(=O)=O)nc1N1CCCC(n2nc(-c3ccc(Oc4ccccc4)cc3)c3c(N)ncnc32)C1 (stereo not shown)",
    "READOUT_NUMBER": 0.5
  }
]

Okay, next one:
If you can, please state the reported difference in %Control versus compound Ib at 1 µM value of CNC(=O)c1cnc(S(C)(=O)=O)nc1N1CCCC(n2nc(-c3ccc(Oc4ccccc4)cc3)c3c(N)ncnc32)C1 (stereo not shown) . 0.05

====

Each entry below lists one item and its recorded difference in %Control vs compound Ib at 1 µM value.
# TARGET_OR_TEST_SYSTEM: JAK2(JH1domain-catalytic) (Homo sapiens)
# Construct: JAK2(JH1domain-catalytic); purchased Eurofins DiscoverX KINOMEscan (scanTK)
# Sequence (O60674 849-1132 limits assumed): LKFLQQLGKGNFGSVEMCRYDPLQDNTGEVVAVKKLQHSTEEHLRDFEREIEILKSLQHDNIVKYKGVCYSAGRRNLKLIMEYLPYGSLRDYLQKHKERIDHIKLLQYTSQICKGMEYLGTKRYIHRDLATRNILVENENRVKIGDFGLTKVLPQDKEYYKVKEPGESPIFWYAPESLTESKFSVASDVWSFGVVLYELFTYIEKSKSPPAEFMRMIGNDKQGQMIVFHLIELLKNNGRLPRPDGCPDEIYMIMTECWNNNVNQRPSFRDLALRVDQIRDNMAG
# TEST_PROTOCOL: KINOMEscan ScanTK
# Type: binding
# COND: @1000nM
Reply with just the number (in %).

Here's what some known entries look like.
[
  {
    "COMPOUND": "CCOC(=O)c1cnc(S(C)(=O)=O)nc1N1CCC[C@@H](n2nc(-c3ccc(Oc4ccccc4)cc3)c3c(N)ncnc32)C1",
    "READOUT_NUMBER": -17
  },
  {
    "COMPOUND": "COC(=O)c1cnc(S(C)(=O)=O)nc1N1CCCC(n2nc(-c3ccc(Oc4ccccc4)cc3)c3c(N)ncnc32)C1 (stereo not shown)",
    "READOUT_NUMBER": -18
  },
  {
    "COMPOUND": "Cc1cnc(S(C)(=O)=O)nc1N1CCCC(n2nc(-c3ccc(Oc4ccccc4)cc3)c3c(N)ncnc32)C1 (stereo not shown)",
    "READOUT_NUMBER": -13
  }
]

Entry CNC(=O)c1cnc(S(C)(=O)=O)nc1N1CCCC(n2nc(-c3ccc(Oc4ccccc4)cc3)c3c(N)ncnc32)C1 (stereo not shown) : reported difference in %Control vs compound Ib at 1 µM = ? -14

====

# TARGET_OR_TEST_SYSTEM: EGFR(L747-S752del, P753S) (Homo sapiens, UniProt P00533, DEL747-752/P753S)
# Construct: purchased Eurofins DiscoverX KINOMEscan (scanTK)
# Sequence (P00533 with tags, fused parts or gaps DEL747-752/P753S limits assumed): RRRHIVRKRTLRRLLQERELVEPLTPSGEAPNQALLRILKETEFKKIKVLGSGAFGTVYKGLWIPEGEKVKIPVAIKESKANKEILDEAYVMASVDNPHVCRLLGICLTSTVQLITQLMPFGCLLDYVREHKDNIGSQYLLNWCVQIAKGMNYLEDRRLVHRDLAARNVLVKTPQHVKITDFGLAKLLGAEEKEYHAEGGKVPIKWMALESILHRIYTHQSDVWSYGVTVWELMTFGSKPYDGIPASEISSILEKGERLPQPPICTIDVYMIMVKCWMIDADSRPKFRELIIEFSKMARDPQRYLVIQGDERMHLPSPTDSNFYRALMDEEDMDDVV
# TEST_PROTOCOL: KINOMEscan ScanTK
# Format: binding
# COND: @1000nM, read-out: %Control
Recorded remaining binding at 1 µM, one value per entry.

Answered examples (3):
[
  {
    "COMPOUND": "COC(=O)c1cnc(S(C)(=O)=O)nc1N1CCCC(n2nc(-c3ccc(Oc4ccccc4)cc3)c3c(N)ncnc32)C1 (stereo not shown) [Compound 8b]",
    "TARGET_OR_TEST_SYSTEM": "EGFR(L747-S752del, P753S) (Homo sapiens, UniProt P00533, DEL747-752/P753S)",
    "remaining binding at 1 µM": "95%"
  },
  {
    "COMPOUND": "CCOC(=O)c1cnc(S(C)(=O)=O)nc1N1CCC[C@@H](n2nc(-c3ccc(Oc4ccccc4)cc3)c3c(N)ncnc32)C1 [Compound 8c]",
    "TARGET_OR_TEST_SYSTEM": "EGFR(L747-S752del, P753S) (Homo sapiens, UniProt P00533, DEL747-752/P753S)",
    "remaining binding at 1 µM": "100%"
  },
  {
    "COMPOUND": "Cc1cnc(S(C)(=O)=O)nc1N1CCCC(n2nc(-c3ccc(Oc4ccccc4)cc3)c3c(N)ncnc32)C1 (stereo not shown) [Compound 8a]",
    "TARGET_OR_TEST_SYSTEM": "EGFR(L747-S752del, P753S) (Homo sapiens, UniProt P00533, DEL747-752/P753S)",
    "remaining binding at 1 µM": "94%"
  }
]

Moving on to the next compound.
Hello, I am looking for reported remaining binding at 1 µM with EGFR(L747-S752del, P753S) (Homo sapiens, UniProt P00533, DEL747-752/P753S) for CNC(=O)c1cnc(S(C)(=O)=O)nc1N1CCCC(n2nc(-c3ccc(Oc4ccccc4)cc3)c3c(N)ncnc32)C1 (stereo not shown) [Compound 8d] . Could you help? 42%
